The values you see were collected from patent US20200339544A1.

- target_desc: DM EGFR (DoubleMutantEGFR, L828R/T790M) (Homo sapiens, UniProt P00533, L858R/T790M)
- assay: Inhibition of DM EGFR kinase activity (ADP-Glo)
- condition_details: inhibition of kinase activity, EGFR DM (L828R/T790M)
- Protocol: To assess IC50 values of the compounds disclosed herein, a biochemical assay of inhibition of kinase activity in a non-cellular system and a functional cellular anti-proliferation assay were used. […] The measurements were carried out in a 25 μL reaction volume using a 96-well plate. […] The luminescence was measured with the Infinite M200Pro plate spectrophotometer (Tecan, Switzerland). […]
pIC50: −log10 of the molar value.
Response key: met means pIC50 >= 8; not met means pIC50 < 8.

(Q) Hello, I need to know if C=CC(=O)Nc1cc(Nc2cc(C(=O)c3ccc(N4CCN(C)CC4)cc3)ccn2)c(OC)cc1N(C)CCN(C)C [EGFR_3365_55] has measured pIC50 not below 8. Thanks!
(A) not met

(Q) Hello, I need to know if C=CC(=O)Nc1cc(Nc2cc(C(=O)c3ccc(OC)cc3)ccn2)c(OC)cc1N(C)CCN(C)C [EGFR_3365_51] has measured pIC50 not below 8. Thanks!
(A) met

(Q) Hello, I need to know if C=CC(=O)Nc1cc(Nc2cc(C(=O)c3ccc(OCCOC)cc3)ccn2)c(OC)cc1N(C)CCN(C)C [EGFR_3365_93] has measured pIC50 not below 8. Thanks!
(A) met

* * *

Would you mind telling me the reported Intrinsic clearance in human liver S9 fractions at 10 µM of each entry?
- assay: Enzyme stability in human liver S9 fractions
- Format: in vitro ADME
- condition_details: 0.5 mg/mL pooled human liver S9 fractions; 10 μM compound; 37° C.; pH 7.4; read-out: Stability in liver S9 fractions, Clint
Entry rule: numbers only, all in µL/min/mg.

(Q) Give recorded Intrinsic clearance in human liver S9 fractions at 10 µM. C=CC(=O)Nc1cc(Nc2nccc(C(=O)c3ccc(F)cc3)n2)c(OC)cc1N(C)CCN(C)C [EGFR_3365_10]
(A) 6.8

(Q) Give recorded Intrinsic clearance in human liver S9 fractions at 10 µM. C=CC(=O)Nc1cc(Nc2nccc(C(=O)c3ccc(OCCCC)cc3)n2)c(OC)cc1N(C)CCN(C)C [EGFR_3365_66]
(A) 1.3

(Q) Give recorded Intrinsic clearance in human liver S9 fractions at 10 µM. C=CC(=O)Nc1cc(Nc2cc(C(=O)c3ccc(OCC)cc3)ccn2)c(OC)cc1N(C)CCN(C)C [EGFR_3365_52]
(A) 16.6

(Q) Give recorded Intrinsic clearance in human liver S9 fractions at 10 µM. C=CC(=O)Nc1cc(Nc2cc(C(=O)c3ccc(-c4cnn(C)c4)cc3)ccn2)c(OC)cc1N(C)CCN(C)C [EGFR_3365_85]
(A) 17.8

* * *

- target_desc: WT EGFR (Wild-Type EGFR) (Homo sapiens, UniProt P00533)
- Sequence (P00533 25-1210): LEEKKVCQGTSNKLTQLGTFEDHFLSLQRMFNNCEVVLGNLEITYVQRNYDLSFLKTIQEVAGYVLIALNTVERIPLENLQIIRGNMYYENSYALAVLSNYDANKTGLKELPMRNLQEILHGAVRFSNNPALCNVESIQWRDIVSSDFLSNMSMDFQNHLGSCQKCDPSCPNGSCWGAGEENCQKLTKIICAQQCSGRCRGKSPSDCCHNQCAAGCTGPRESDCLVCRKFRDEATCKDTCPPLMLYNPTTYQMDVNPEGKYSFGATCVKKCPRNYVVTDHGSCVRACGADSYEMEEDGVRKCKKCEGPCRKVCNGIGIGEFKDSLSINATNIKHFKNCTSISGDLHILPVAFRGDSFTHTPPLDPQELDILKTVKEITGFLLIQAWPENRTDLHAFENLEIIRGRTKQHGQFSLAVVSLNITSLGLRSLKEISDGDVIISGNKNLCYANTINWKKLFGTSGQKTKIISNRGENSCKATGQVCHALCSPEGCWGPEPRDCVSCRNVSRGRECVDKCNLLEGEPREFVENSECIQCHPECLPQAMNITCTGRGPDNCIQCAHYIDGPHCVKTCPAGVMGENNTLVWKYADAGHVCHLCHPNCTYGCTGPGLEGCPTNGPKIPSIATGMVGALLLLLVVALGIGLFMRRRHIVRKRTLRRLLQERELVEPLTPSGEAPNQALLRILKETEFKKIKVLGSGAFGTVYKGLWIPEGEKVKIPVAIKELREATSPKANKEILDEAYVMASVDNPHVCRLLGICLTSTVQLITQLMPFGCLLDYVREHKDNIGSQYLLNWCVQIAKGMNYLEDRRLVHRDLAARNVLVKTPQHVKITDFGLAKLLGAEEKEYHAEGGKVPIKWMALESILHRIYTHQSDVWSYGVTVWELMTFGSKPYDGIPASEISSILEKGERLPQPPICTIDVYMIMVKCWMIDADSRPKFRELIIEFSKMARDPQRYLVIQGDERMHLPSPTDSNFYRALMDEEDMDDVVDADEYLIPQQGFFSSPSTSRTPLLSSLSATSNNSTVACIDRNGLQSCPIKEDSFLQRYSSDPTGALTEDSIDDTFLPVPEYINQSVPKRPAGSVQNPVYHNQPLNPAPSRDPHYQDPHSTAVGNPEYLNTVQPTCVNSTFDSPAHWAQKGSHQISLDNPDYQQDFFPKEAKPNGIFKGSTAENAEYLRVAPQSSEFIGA
Consider the cut-off 50 nM. If the recorded IC50 is strictly smaller, the label is 1; if not, the label is 0.

(Q) Lab note: confirm whether the reported IC50 for this compound is below 50 nM, equality not counting. compound: C=CC(=O)Nc1cc(Nc2nccc(C(=O)c3ccc(OCc4ccccc4)cc3)n2)c(OC)cc1N(C)CCN(C)C [EGFR_3365_16]
(A) 0

(Q) Lab note: confirm whether the reported IC50 for this compound is below 50 nM, equality not counting. compound: C=CC(=O)Nc1cc(Nc2nccc(C(=O)c3ccc(N4CC[C@@H](OC)C4)cc3)n2)c(OC)cc1N(C)CCN(C)C [EGFR_3365_115]
(A) 0

(Q) Lab note: confirm whether the reported IC50 for this compound is below 50 nM, equality not counting. compound: C=CC(=O)Nc1cc(Nc2nccc(C(=O)c3ccc(N4CCCC4)cc3OC)n2)c(OC)cc1N(C)CCN(C)C [EGFR_3365_123]
(A) 0

(Q) Lab note: confirm whether the reported IC50 for this compound is below 50 nM, equality not counting. compound: C=CC(=O)Nc1cc(Nc2cc(C(=O)c3ccc(N(C)C)cc3)ccn2)c(OC)cc1N(C)CCN(C)C.O=C(O)C(F)(F)F [EGFR_3365_4, 2,2,2-trifluoroacetate]
(A) 0

(Q) Lab note: confirm whether the reported IC50 for this compound is below 50 nM, equality not counting. compound: C=CC(=O)Nc1cc(Nc2nccc(C(=O)c3ccc(N4CCC[C@@H](O)C4)cc3)n2)c(OC)cc1N(C)CCN(C)C [EGFR_3365_109]
(A) 1
